Task for the reader: assign each of the following compounds its reported inhibition.
assay: TLR3 IRF3 reporter activation blockers – cell-based, poly I:C stimulus, luciferase, 10K MLSCN set, primary screen (AID 602277); settings: HEK293-TLR3 RL24 IRF3 luciferase reporter, at 10 µM, hits give high values
// units = %; emit number, no label

Entry O=C(NCc1cccs1)C(Cc1ccccc1)n1cccc1 (centres undefined) ; inhibition = 26.2

Entry `Cc1ccc(CCP(=O)(O)CN2CCOCC2)cn1` ; inhibition = 33.2

Entry COc1ccc2cc(CN(Cc3ccco3)C(c3nnnn3C3CCCCC3)C(C)C)c(=O)[nH]c2c1 (centres undefined) ; inhibition = -3.61

Entry `O=C(CSc1nc2ccccc2c(=O)n1Cc1ccco1)NCc1ccccc1` ; inhibition = 9.86

Entry `CCc1nnc(NC(=O)c2ccc(S(=O)(=O)NC3CCCCC3)cc2)s1` ; inhibition = -17.5

Entry `CCOC(=O)NC(=O)CSc1nnc(C)s1` ; inhibition = 17.5

Entry `CCOc1ccc(NS(=O)(=O)c2cc(Cl)ccc2OC)cc1` ; inhibition = 21

Entry Cc1[nH]c(=O)[nH]c(=O)c1S(=O)(=O)N1c2ccc(F)cc2CCC1C (centres undefined) ; inhibition = 21.9

Entry `COc1ccc2[nH]c(=O)c(CN(Cc3cccs3)Cc3nnnn3C(C)(C)C)cc2c1` ; inhibition = 7.17

Entry COc1ccc(OC)c(NC(=O)C23CCC(C)(C(=O)C2)C3(C)C)c1 (centres undefined) ; inhibition = 26.7

Entry `N#CCc1ccc(NC(=O)Nc2cccc(Cl)c2)cc1` ; inhibition = -62.7

Entry `CCOC(=O)c1ccccc1NC(=O)Cn1cnc2c(cnn2-c2ccc(OC)cc2)c1=O` ; inhibition = 22.8

Entry O=C1c2ccccc2C(Nc2ccc3c(c2)OCO3)N1Cc1ccc2c(c1)OCO2 (centres undefined) ; inhibition = 27.2

Entry `COCC(=O)NC(c1ccccc1)c1ccccc1` ; inhibition = 19.5
